Consider the following sequences; for each one, report its # Sites (off-target integration sites detected).
Tested on: off-target genomic sites
experiment: Off-target oligo insertion based assay in HEK293_Cas9 cells, dgRNAs and sgRNAs (Tables 23, 24)
Format: cell-based, human
run conditions: Table 23; TTR dgRNAs in HekCas9 cells, oligo insertion based assay
Numbers only.

CUCUGCAUGCUCAUGGAAUG (tested as dual guide RNA, chemistry not given here) [CR003369]    2
GACGACAGCCGUGGUGGAAU (tested as dual guide RNA, chemistry not given here) [CR003388]    2
UGUAGAAGGGAUAUACAAAG (tested as dual guide RNA, chemistry not given here) [CR003365]    3
GGGAUUGGUGACGACAGCCG (tested as dual guide RNA, chemistry not given here) [CR003390]    1

Would you mind listing # Sites (off-target integration sites detected) for each of the following sequences?
1. GCGGCAAUGGUGUAGCGGCG (tested as dual guide RNA, chemistry not given here) [CR003377]
2. AGUCCCUCAUUCCUUGGGAU (tested as dual guide RNA, chemistry not given here) [CR003392]

OUTPUT:
1. 0
2. 0

* * *

System: TTR
experiment: TTR editing in primary cyno hepatocytes electroporated with Spy Cas9 protein and dgRNAs (Tables 10, 11)
Format: cell-based, cynomolgus monkey
run conditions: Table 10; primary cyno hepatocytes electroporated with Spy Cas9 protein (RNP) and dgRNAs
Rule: Yes for Avg % Edit not less than 8%, No for anything less.

CCGUGGUGGAAUAGGAGUAG (tested as dual guide RNA, chemistry not given here) [CR003386]    No
UUUGACCAUCAGAGGACACU (tested as dual guide RNA, chemistry not given here) [CR003344]    Yes
AAAGGCUGCUGAUGACACCU (tested as dual guide RNA, chemistry not given here) [CR003353]    No
ACUGAGGAGGAAUUUGUAGA (tested as dual guide RNA, chemistry not given here) [CR003363]    Yes
CCUCUGCAUGCUCAUGGAAU (tested as dual guide RNA, chemistry not given here) [CR003370]    No

INPUT: Please check the record UCUAGAACUUUGACCAUCAG (tested as dual guide RNA, chemistry not given here) [CR003345] and state if its Avg % Edit is at or above 8%.
OUTPUT: Yes

* * *

Tested on: TTR
experiment: TTR editing in HEK293_Cas9 cells transfected with dgRNAs (Table 4)
Format: cell-based, human
run conditions: HEK293_Cas9 cells (constitutively express Spy Cas9) transfected with dgRNAs
Give Avg % Insert for every item shown.
Answers are plain numbers, in %.

# annotated cases, reported Avg % Insert shown
GUAUUCACAGCCAACGACUC (tested as dual guide RNA, chemistry not given here) [CR003373]    1.31
GCAUGGGCUCACAACUGAGG (tested as dual guide RNA, chemistry not given here) [CR003362]    1.48
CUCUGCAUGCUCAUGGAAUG (tested as dual guide RNA, chemistry not given here) [CR003369]    9.06

We next turn to a different sequence, shown below.
The reported value for UACUCACCUCUGCAUGCUCA (tested as dual guide RNA, chemistry not given here) [CR003372] in terms of Avg % Insert is 3.25

* * *

Test system: TTR
experiment: TTR editing in primary human hepatocytes transfected with Spy Cas9 mRNA and dgRNAs (Table 9)
Assay type: cell-based
run conditions: dgRNA co-transfected with Spy Cas9 mRNA (SEQ ID NO:2)
attribute measured: Avg % Insert (%)
Numbers only, in %.

// below: answered sequences
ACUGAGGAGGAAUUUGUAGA (tested as dual guide RNA, chemistry not given here) [CR003363]    11.80
GGGGCUCAGCAGGGCGGCAA (tested as dual guide RNA, chemistry not given here) [CR003381]    3.33
GCAACUUACCCAGAGGCAAA (tested as dual guide RNA, chemistry not given here) [CR003356]    4.70
UAUAGGAAAACCAGUGAGUC (tested as dual guide RNA, chemistry not given here) [CR005305]    5.93
CUGCUCCUCCUCUGCCUUGC (tested as dual guide RNA, chemistry not given here) [CR003335]    33.03

Hey, quick one: what's Avg % Insert for each of these?
1. GCAGGGCGGCAAUGGUGUAG (tested as dual guide RNA, chemistry not given here) [CR003380]
2. GUCACAGAAACACUCACCGU (tested as dual guide RNA, chemistry not given here) [CR005301]

OUTPUT:
1. 2.47
2. 5.47
